- target-or-system: MMP-13 (Homo sapiens, UniProt P45452)
- experiment-summary: MMP-13 inhibition
- Type: biochemical
- conditions-used: read-out: IC50 (nM) MMP-13

molecule	target-or-system	unit-text	IC50
CC#CCOc1ccc(S(=O)(=O)N2Cc3ccccc3N(C(=O)C3CC3)CC2C(=O)NO)cc1 (stereo not shown)	MMP-13 (Homo sapiens, UniProt P45452)	nM	29
CC#CCOc1ccc(S(=O)(=O)N2Cc3ccccc3N(C(C)=O)CC2C(=O)NO)cc1 (stereo not shown)	MMP-13 (Homo sapiens, UniProt P45452)	nM	77
CC#CCOc1ccc(S(=O)(=O)N2Cc3ccccc3N(C(=O)c3ccccc3)CC2C(=O)NO)cc1 (stereo not shown)	MMP-13 (Homo sapiens, UniProt P45452)	nM	10
CC#CCOc1ccc(S(=O)(=O)N2Cc3ccccc3N(C(=O)c3cccs3)CC2C(=O)NO)cc1 (stereo not shown)	MMP-13 (Homo sapiens, UniProt P45452)	nM	8

====

- target-or-system: TACE (Homo sapiens, UniProt P78536)
- Construct: purchased Immunex
- Sequence (P78536 215-824): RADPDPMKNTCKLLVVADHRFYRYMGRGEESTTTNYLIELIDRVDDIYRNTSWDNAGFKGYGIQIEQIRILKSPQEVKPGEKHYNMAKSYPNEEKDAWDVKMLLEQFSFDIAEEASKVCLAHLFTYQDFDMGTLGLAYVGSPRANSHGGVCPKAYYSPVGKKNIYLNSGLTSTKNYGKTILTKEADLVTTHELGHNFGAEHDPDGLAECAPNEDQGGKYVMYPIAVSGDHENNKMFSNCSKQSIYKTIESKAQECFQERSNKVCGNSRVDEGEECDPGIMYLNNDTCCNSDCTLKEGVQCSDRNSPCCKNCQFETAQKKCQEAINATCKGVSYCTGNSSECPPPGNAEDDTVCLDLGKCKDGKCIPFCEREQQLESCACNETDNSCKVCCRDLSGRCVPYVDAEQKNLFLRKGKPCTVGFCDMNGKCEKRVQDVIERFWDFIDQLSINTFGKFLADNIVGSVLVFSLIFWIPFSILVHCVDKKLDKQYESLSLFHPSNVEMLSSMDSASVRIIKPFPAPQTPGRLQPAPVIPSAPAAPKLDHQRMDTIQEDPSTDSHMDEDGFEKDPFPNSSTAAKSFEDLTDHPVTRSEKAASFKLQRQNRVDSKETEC
- experiment-summary: Procedure for measuring TACE inhibition (fluorescent peptidyl substrate)
- Format: biochemical
- Experimental: Procedure for Measuring TACE Inhibition The plates were incubated for 10 minutes at room temperature. […] The reaction was read (excitation 340 nm, emission 420 nm) for 10 min. and the increase in fluorescence over time was plotted as a linear line. The slope of the line was calculated and this represents the reaction rate. […] The mean (x±sem) of the control rate was calculated and compared for statistical significance (p<0.05) with drug-treated rates using Dunnett's multiple comparison test.
readout: IC50 (nM)

compound	obs-value
CC#CCOc1ccc(S(=O)(=O)N2Cc3ccccc3N(C(=O)c3ccco3)CC2C(=O)NO)cc1 (stereo not shown) [Example 57]	33

====

Each entry below lists one item and its recorded IC50 value.
- target-or-system: MMP-1 (Homo sapiens)
- Construct: human recombinant fibroblast collagenase (truncated, mw=18,828)
- Sequence (P03956 100-269 limits assumed): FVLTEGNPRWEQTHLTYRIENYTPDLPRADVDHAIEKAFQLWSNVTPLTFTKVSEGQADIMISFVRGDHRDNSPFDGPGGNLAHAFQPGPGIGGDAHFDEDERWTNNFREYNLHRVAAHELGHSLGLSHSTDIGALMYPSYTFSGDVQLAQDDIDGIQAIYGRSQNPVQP
- experiment-summary: In vitro collagenase assay (fluorogenic peptide substrate)
- Type: biochemical
- conditions-used: human recombinant fibroblast collagenase

compound	IC50, nM
CC#CCOc1ccc(S(=O)(=O)N2Cc3ccccc3N(C(=O)C3CC3)CC2C(=O)NO)cc1 (stereo not shown)	841
CC#CCOc1ccc(S(=O)(=O)N2Cc3ccccc3N(C(C)=O)CC2C(=O)NO)cc1 (stereo not shown)	835
CC#CCOc1ccc(S(=O)(=O)N2Cc3ccccc3N(C(=O)c3ccco3)CC2C(=O)NO)cc1 (stereo not shown)	125
CC#CCOc1ccc(S(=O)(=O)N2Cc3ccccc3N(C(=O)c3cccs3)CC2C(=O)NO)cc1 (stereo not shown)	250

====

- target-or-system: MMP-13 (Homo sapiens)
- experiment-summary: MMP-13 inhibition
- Assay type: biochemical

compound	IC50 [nM]
CC#CCOc1ccc(S(=O)(=O)N2Cc3ccccc3N(C(=O)c3ccco3)CC2C(=O)NO)cc1 (stereo not shown)	7

====

- target-or-system: MMP-9 (Homo sapiens, UniProt P14780)
- Construct: human neutrophil gelatinase B; from tissue; host or cells: human neutrophils
- Sequence (P14780 94-707): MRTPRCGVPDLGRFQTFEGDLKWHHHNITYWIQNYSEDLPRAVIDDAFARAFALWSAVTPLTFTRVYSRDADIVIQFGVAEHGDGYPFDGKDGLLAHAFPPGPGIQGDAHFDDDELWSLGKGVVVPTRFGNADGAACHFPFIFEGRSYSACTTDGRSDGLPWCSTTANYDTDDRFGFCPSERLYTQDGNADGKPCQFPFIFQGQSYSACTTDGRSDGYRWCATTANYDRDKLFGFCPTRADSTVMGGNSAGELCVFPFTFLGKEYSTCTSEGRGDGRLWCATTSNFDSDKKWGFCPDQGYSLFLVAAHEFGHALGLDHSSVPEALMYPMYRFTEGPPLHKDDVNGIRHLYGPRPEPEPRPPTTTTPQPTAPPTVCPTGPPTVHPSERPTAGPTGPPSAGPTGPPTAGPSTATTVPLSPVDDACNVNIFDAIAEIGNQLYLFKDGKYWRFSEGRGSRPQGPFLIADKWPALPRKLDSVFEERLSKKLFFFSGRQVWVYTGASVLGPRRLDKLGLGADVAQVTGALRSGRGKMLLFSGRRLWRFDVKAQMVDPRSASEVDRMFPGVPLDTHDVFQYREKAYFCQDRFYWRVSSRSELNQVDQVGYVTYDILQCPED
- experiment-summary: In vitro gelatinase assay (thiopeptide substrate, DTNB)
- Format: biochemical
- conditions-used: human neutrophil gelatinase B

compound	IC50, nM
CC#CCOc1ccc(S(=O)(=O)N2Cc3ccccc3N(C(C)=O)CC2C(=O)NO)cc1 (stereo not shown)	228
CC#CCOc1ccc(S(=O)(=O)N2Cc3ccccc3N(C(=O)c3ccco3)CC2C(=O)NO)cc1 (stereo not shown)	2
CC#CCOc1ccc(S(=O)(=O)N2Cc3ccccc3N(C(=O)c3cccs3)CC2C(=O)NO)cc1 (stereo not shown)	24
CC#CCOc1ccc(S(=O)(=O)N2Cc3ccccc3N(C(=O)C3CC3)CC2C(=O)NO)cc1 (stereo not shown)	33
